assay: small molecules captured by biotinylated probe aFGF10 – biochemical, small-molecule microarray, fluorescence 635/667, stem cell growth factor project, primary screen (AID 1071); conditions: higher = more signal;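 note: score merges 667 nm spot intensity and signal to noise from triplicate slides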
Lab note: anything with composite z-score at or over 0.1 counts as 1.0; the rest go in 0.0.

Examples from the recorded data:
MOLECULE: COc1ccc(C#Cc2ccc3c(c2)[C@]2(C(=O)N3)[C@H](c3ccc(O)cc3)N3[C@H](c4ccccc4)[C@H](c4ccccc4)OC(=O)[C@H]3[C@@H]2C(=O)N2CCc3cc(OC)c(OC)cc3C2)cc1
CLASS: 1.0
//
MOLECULE: CCCC=C(CCC)[C@@H](NS(=O)(=O)c1ccc(Cl)cc1)c1ccc(C(=O)OC)cc1
CLASS: 1.0
//
MOLECULE: CC(C)NC(=O)[C@@]1(Cc2ccccc2I)c2ccccc2C(=O)N(Cc2ccccc2Cl)[C@H]1c1ccc(CO)cc1
CLASS: 1.0
//
MOLECULE: CN1C(=O)C2C=CC(C(O)c3ccc(F)cc3)N(N(c3ccccc3)c3ccccc3)C2C1=O (centres undefined)
CLASS: 1.0
//
MOLECULE: CO[C@H]1O[C@H](CO)[C@@H](OC(=O)Nc2ccc(Oc3ccccc3)cc2)[C@H](OC(=O)Nc2ccc3c(c2)OCO3)[C@@H]1OC(=O)Nc1ccc2c(c1)OCO2
CLASS: 1.0
//
MOLECULE: COC(=O)[C@@]1(Cc2ccc(F)cc2)[C@H]2c3cc(C(=O)N(C)C)n(Cc4cc(C)n(C)n4)c3C[C@H]2CN1C(=O)c1ccccc1
CLASS: 1.0
//
MOLECULE: [N-]=[N+]=Nc1ccccc1[C@H]1OC(c2ccc(OCCCO)cc2)=N[C@@]1(CCS(=O)(=O)c1ccccc1)C(=O)NCc1ccccc1
CLASS: 1.0
//
MOLECULE: COc1ccc(C(O)C2C=CC3C(=O)N(C)C(=O)C3N2N(c2ccccc2)c2ccccc2)c2ccccc12 (centres undefined)
CLASS: 1.0

*Q* Say whether "O=C1N(CCS(=O)(=O)c2ccccc2)c2ccccc2[C@@H]2OC(c3ccc(OCCCO)cc3)=N[C@]12Cc1ccccc1" shows composite z-score of 0.1 or more.
*A* 1.0

*Q* Say whether "Cc1ccc(S[C@]2(C(=O)O)CC(=O)N(C(C)C)[C@@H]2c2ccc(CO)cc2)cc1" shows composite z-score of 0.1 or more.
*A* 0.0
